Target: AGFG1 Arf-GAP domain and FG repeat-containing protein 1 (Homo sapiens, UniProt P52594)
Construct: isoTOP-ABPP experiments performed in cell lysates (in vitro); endogenous in cells; host or cells: soluble proteome of human cancer cell lines (MDA-MB-231, Ramos, Jurkat)
Sequence (P52594 1-562): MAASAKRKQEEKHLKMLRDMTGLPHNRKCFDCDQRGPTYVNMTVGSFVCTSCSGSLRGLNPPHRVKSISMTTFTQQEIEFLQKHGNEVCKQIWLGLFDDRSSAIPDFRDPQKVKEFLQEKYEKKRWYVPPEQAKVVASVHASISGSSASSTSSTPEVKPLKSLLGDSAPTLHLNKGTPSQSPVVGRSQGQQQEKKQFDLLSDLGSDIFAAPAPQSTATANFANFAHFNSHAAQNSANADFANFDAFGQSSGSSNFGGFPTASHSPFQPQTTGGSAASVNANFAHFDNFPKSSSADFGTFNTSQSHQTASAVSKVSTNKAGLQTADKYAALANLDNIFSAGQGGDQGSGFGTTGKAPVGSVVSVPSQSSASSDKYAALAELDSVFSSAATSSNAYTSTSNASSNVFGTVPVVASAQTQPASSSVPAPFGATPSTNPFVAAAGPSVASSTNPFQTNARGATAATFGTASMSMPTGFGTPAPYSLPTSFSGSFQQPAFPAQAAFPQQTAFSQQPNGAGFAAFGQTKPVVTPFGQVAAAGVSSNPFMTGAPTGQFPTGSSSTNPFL
Assay: competitive isoTOP-ABPP
Format: binding
Details: 50 uM_231_sol_in vitro
observable: isoTOP-ABPP ratio, lysine P52594_K134
// no unit, no text: just the number

What measured isoTOP-ABPP ratio, lysine P52594_K134 goes with `O=C(CCc1ccc2c(c1)OCO2)Oc1ccc([N+](=O)[O-])cc1[N+](=O)[O-]` ?
20.0

Subsequent entry: `O=C(Oc1c(F)c(F)cc(F)c1F)c1cc(C(F)(F)F)cc(C(F)(F)F)c1`
1.0

Next compound: NC(=O)c1cc(C(F)(F)F)cc(C(F)(F)F)c1 [fragment 51, reference compound]
0.9

Same for `O=C(ON1C(=O)CCC1=O)c1cc(C(F)(F)F)cc(C(F)(F)F)c1`
1.0

Record: N#Cc1ccc(C(=O)Oc2ccc([N+](=O)[O-])cc2[N+](=O)[O-])cc1 [fragment 44, 2,4-Dinitrophenyl 4-cyanobenzoate]
1.5
